Test system: Trichophyton mentagrophytes
Assay: Antifungal activity against Trichophyton mentagrophytes by broth microdilution method
Type: functional
measure: MIC (µg/mL)

[[record]]
molecule = "Clc1ccc(COC(Cn2ccnc2)c2ccc(Cl)cc2Cl)c(Cl)c1 (stereo unspecified)"
testedon = "Trichophyton mentagrophytes"
inequalitysign = "<"
observed = 0.78

[[record]]
molecule = "O=C1C(Cl)=C(Nc2ccc(O)cc2)C(=O)c2ccccc21"
testedon = "Trichophyton mentagrophytes"
inequalitysign = "="
observed = 1.56

[[record]]
molecule = "O=C1C(Cl)=C(Oc2ccccc2)C(=O)c2ccccc21"
testedon = "Trichophyton mentagrophytes"
inequalitysign = "="
observed = 0.78

[[record]]
molecule = "Cc1ccc(OC2=C(Nc3ccccc3)C(=O)c3ccccc3C2=O)cc1"
testedon = "Trichophyton mentagrophytes"
inequalitysign = "="
observed = 0.78

[[record]]
molecule = "OC(Cn1cncn1)(Cn1cncn1)c1ccc(F)cc1F"
testedon = "Trichophyton mentagrophytes"
inequalitysign = "="
observed = 1.56

[[record]]
molecule = "Cc1ccc(OC2=C(Sc3ccc(C)cc3)C(=O)c3ccccc3C2=O)cc1"
testedon = "Trichophyton mentagrophytes"
inequalitysign = "="
observed = 1.56

[[record]]
molecule = "C[C@@H]1[C@H](O)[C@@H](C)/C=C/C=C/C=C/C=C/C=C/C=C/C=C/[C@H](O[C@@H]2O[C@H](C)[C@@H](O)[C@H](N)[C@@H]2O)C[C@@H]2O[C@](O)(C[C@@H](O)C[C@@H](O)[C@H](O)CC[C@@H](O)C[C@@H](O)CC(=O)O[C@H]1C)C[C@H](O)[C@H]2C(=O)O"
testedon = "Trichophyton mentagrophytes"
inequalitysign = "="
observed = 1.56

[[record]]
molecule = "O=c1c2oc3ccccc3oc=2c(=O)c2ccccc12"
testedon = "Trichophyton mentagrophytes"
inequalitysign = "="
observed = 1.56

[[record]]
molecule = "Cc1ccc(OC2=C(Cl)C(=O)c3ccccc3C2=O)cc1"
testedon = "Trichophyton mentagrophytes"
inequalitysign = "="
observed = 1.56

[[record]]
molecule = "O=C1C(Cl)=C(Oc2ccc(Cl)cc2)C(=O)c2ccccc21"
testedon = "Trichophyton mentagrophytes"
inequalitysign = "="
observed = 1.56

[[record]]
molecule = "Cc1cc(C)cc(OC2=C(Cl)C(=O)c3ccccc3C2=O)c1"
testedon = "Trichophyton mentagrophytes"
inequalitysign = "="
observed = 1.56


====

System: Candida parapsilosis
Assay: Antifungal activity against Candida parapsilosis by broth microdilution method
Assay type: functional
Conditions: Lodderomyces parapsilosis
measure: MIC (µg/mL)

[[record]]
molecule = "OC(Cn1cncn1)(Cn1cncn1)c1ccc(F)cc1F [FLUCONAZOLE]"
testedon = "Candida parapsilosis"
resultunit = "µg/mL"
inequalitysign = "="
observed = 1

[[record]]
molecule = "Cc1ccc(OC2=C(Sc3ccccc3)C(=O)c3ccccc3C2=O)cc1"
testedon = "Candida parapsilosis"
resultunit = "µg/mL"
inequalitysign = "="
observed = 12.5

[[record]]
molecule = "O=C1C(Cl)=C(Oc2ccc3ccccc3c2)C(=O)c2ccccc21"
testedon = "Candida parapsilosis"
resultunit = "µg/mL"
inequalitysign = ">"
observed = 50

[[record]]
molecule = "Cc1ccc(OC2=C(Nc3ccccc3)C(=O)c3ccccc3C2=O)cc1"
testedon = "Candida parapsilosis"
resultunit = "µg/mL"
inequalitysign = "="
observed = 12.5

[[record]]
molecule = "COc1ccc(OC2=C(Cl)C(=O)c3ccccc3C2=O)cc1"
testedon = "Candida parapsilosis"
resultunit = "µg/mL"
inequalitysign = "="
observed = 6.25

[[record]]
molecule = "O=C1C(Cl)=C(Nc2ccc(O)cc2)C(=O)c2ccccc21"
testedon = "Candida parapsilosis"
resultunit = "µg/mL"
inequalitysign = "="
observed = 6.25

[[record]]
molecule = "O=C1C(Cl)=C(Oc2ccc(Cl)cc2)C(=O)c2ccccc21"
testedon = "Candida parapsilosis"
resultunit = "µg/mL"
inequalitysign = "="
observed = 6.25

[[record]]
molecule = "O=c1c2oc3ccccc3oc=2c(=O)c2ccccc12"
testedon = "Candida parapsilosis"
resultunit = "µg/mL"
inequalitysign = "="
observed = 3.12

[[record]]
molecule = "Cc1ccc(OC2=C(Sc3ccc(C)cc3)C(=O)c3ccccc3C2=O)cc1"
testedon = "Candida parapsilosis"
resultunit = "µg/mL"
inequalitysign = "="
observed = 25

[[record]]
molecule = "O=C1C(Cl)=C(Oc2cccc3ccccc23)C(=O)c2ccccc21"
testedon = "Candida parapsilosis"
resultunit = "µg/mL"
inequalitysign = "="
observed = 12.5

[[record]]
molecule = "O=C1C(Cl)=C(Oc2ccccc2)C(=O)c2ccccc21"
testedon = "Candida parapsilosis"
resultunit = "µg/mL"
inequalitysign = "="
observed = 12.5

[[record]]
molecule = "O=C1C(Cl)=C(Oc2ccccc2OC2=C(Cl)C(=O)c3ccccc3C2=O)C(=O)c2ccccc21"
testedon = "Candida parapsilosis"
resultunit = "µg/mL"
inequalitysign = "="
observed = 50

[[record]]
molecule = "Cc1ccc(OC2=C(Cl)C(=O)c3ccccc3C2=O)cc1"
testedon = "Candida parapsilosis"
resultunit = "µg/mL"
inequalitysign = "="
observed = 3.12

[[record]]
molecule = "Cc1cc(C)cc(OC2=C(Cl)C(=O)c3ccccc3C2=O)c1"
testedon = "Candida parapsilosis"
resultunit = "µg/mL"
inequalitysign = "="
observed = 3.12


Cited source: ChEMBL document CHEMBL1909533
